From: patent US20160200799A1

EXPERIMENTAL_SYSTEM: Influenza virus A/New Caledonia/20/1999 (H1N1) (Influenza A virus A/New Caledonia/20/1999 (H1N1))
TEST_NAME: ELISA on coated viral particles
RECORDED_ENDPOINT: Binding activity (absorbance at 492 nm)

Quote Binding activity (absorbance at 492 nm) reported for Group 42 representative clone F083-249, Fab-cp3-type antibody (Fab, V domains shown) VH: QVQLVQSGSEVKKPGSSVKVSCKASGVTFSSYAISWVRQAPGQGLEWMGGISPMFGTTRYAQKFQGRVTITADESTRTGFMELSSLRSGDTAVYYCARSPTYYPGALDMWGQGTTVTVSS VL: DVVMTQSPSLLSASVGDRVTITCRASQAIANFVSWFQQKPGEAPKSLIHAASTLQGGVPPRFSGSGYGAVFTLTITNLQPEDFATYFCQQYNSLPFTFGPGTDVEVR please. 3.13

Look up and report measured Binding activity (absorbance at 492 nm) for this entry: Group 43 representative clone F081-007, Fab-cp3-type antibody (Fab, V domains shown) VH: QVQLQQSGAEVKKPGSSVKVSCKASGGIFRKNAISWVRQAPGQGLEWMGGISAIFGTANYAQKFQGRVTITADESSNTVYMDLSRLRSEDTAIYYCASHPTYHFDKSGYRFDSWGQGTLVTVSS VL: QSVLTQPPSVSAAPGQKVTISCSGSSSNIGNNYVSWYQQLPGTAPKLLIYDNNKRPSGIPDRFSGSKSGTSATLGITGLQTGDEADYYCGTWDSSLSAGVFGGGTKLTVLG 2.84

Note down Binding activity (absorbance at 492 nm) recorded for Group 56 representative clone F083-318, Fab-cp3-type antibody (Fab, V domains shown) VH: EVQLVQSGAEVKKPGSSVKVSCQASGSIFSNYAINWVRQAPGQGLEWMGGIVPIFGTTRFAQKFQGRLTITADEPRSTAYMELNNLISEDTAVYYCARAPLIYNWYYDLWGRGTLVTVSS VL: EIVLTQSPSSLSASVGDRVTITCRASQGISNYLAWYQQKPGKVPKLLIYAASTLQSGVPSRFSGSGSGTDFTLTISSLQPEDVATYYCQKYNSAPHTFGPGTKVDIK 3.01

Answer with the recorded Binding activity (absorbance at 492 nm) of Group 59 representative clone F083-351, Fab-cp3-type antibody (Fab, V domains shown) VH: QVQLVQSGADVKKAGSSVKVSCKASGRTFGNYAISWVRQAPGQGLEWMGGITPIFGAANYAQKFQGRVTISADLSTRMVYMDLSSLRSDDTAFYYCAGHPMYHYGSAMDYWGQGTLVTVSS VL: QSVLTQPPSASGTPGQRVSISCFGSRSNVGSSSVNWYQQLPGRAPKLLIQRNDQRPSGVPDRFSGSKSGTSASLAISGLQSDDESTYYCAAWDDSVKSVVFGGGTQLTVLG only. 3.21

Find the measured Binding activity (absorbance at 492 nm) of Group 3 representative clone F081-281, Fab-cp3-type antibody (Fab, V domains shown) VH: QVQLVQSGSEVKKPGSSVKVSCSFKASGGIISKYAITWVRQAPGQGLEWMGGIIAIFGSTNYAQKFQGRLTITSDESTSTAYMELSSLTSEDTAVYYCGRGPHYYESHLDYWGQGTLVTVSS VL: EIVLTQSPGTLSLSPGERATLSCRASQGMSSSFLAWYQQKPGQPPRLLISGASTRATGIPDRFSGSGSGTDFTLTINRLEPEDFAVYYCQQYGSSPRTFGQGTKVEIK and report it. 2.86
